Note to self: these compounds have Ki reported for Pro-cathepsin H (Homo sapiens) in various publications.

Completed entries (count: 3):
C[C@@H](CC1CCCCC1)OC(=O)NN(C)C#N 0.0014 µM
C[C@@H](CNc1ccc(OC(F)(F)F)cc1)NC(=O)[C@H](CS(=O)(=O)Cc1ccccc1)NC(=O)N1CCOCC1 > 30 µM
C[C@@H](CC1CCCCC1)OC(=O)CN(C)C#N > 13 µM

Consider the record given below.
Prompt: Name the recorded Ki for CC(=O)N1CCN(c2ccc(OCc3cc4cnc(C#N)nc4n3CCC3CCC(F)(F)CC3)cc2)CC1 .
Response: > 10 µM
